Every entry's value here was drawn from the supplement of paper PMC12855868.

B1: library; numbered along this chain (parent)
chain: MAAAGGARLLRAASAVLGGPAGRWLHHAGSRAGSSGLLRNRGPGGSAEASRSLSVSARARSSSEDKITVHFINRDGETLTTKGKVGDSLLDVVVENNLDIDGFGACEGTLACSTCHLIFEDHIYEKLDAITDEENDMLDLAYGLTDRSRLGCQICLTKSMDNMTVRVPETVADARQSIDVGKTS

- Variants of: B1
- protocolDescription: scaled log2 fold change in cell abundance, elesclomol vs control (0 = silent mean, 1 = nonsense mean) (scaled log2 ratio); higher = higher viability under elesclomol (loss of FDX1 cuproptosis function);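 note: variant abundance is its share of total variant reads in each endpoint sample, from next-generation sequencing of the integrated ORF PCR-amplified out of genomic DNA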
- measurementConditions: with ABC1 FDX1 KO; elesclomol 5 nM; glucose 10 mM; 14 days
just bin them by scaled log2 fold change: one: < -0.06; two: ≥ -0.06 and < 0.2; three: ≥ 0.2

1. V85T    one
2. L117I    one
3. L156W    three
4. V167T    three
5. E95F    one
6. S159Y    one
7. H70M    one
8. S63P    two
9. L150P    three
10. R149G    three
11. D146L    two
12. V69G    three
13. S177Q    two
14. P43D    one
15. S30Y    two
16. S148T    three
17. D139T    one
18. L156T    two
19. L89K    three
20. L144K    two
21. S30Q    three
22. D65T    one
23. T81N    three
24. D87A    two
25. D65E    one
26. E64A    one
27. V16L    three
28. S61V    three
29. G6W    two
30. L117A    two
31. A13K    two
32. A57G    two
33. P20N    one
34. L89H    three
35. T109A    one
36. E169L    one
37. S159W    two
38. S35Q    two
39. N73G    three
40. K82Y    one
41. Q153K    two
42. E134V    three
43. G44D    two
44. L89T    one
45. G18H    two
